Tested on: E. coli strains
experiment_description: Antimicrobial activity test, E. coli strains (strain not given with the value)
Format: cell-based
measurement_setup: Escherichia coli, BW25113, BL21, E. coli BL21, MC4100 or BW25113; strain not given; read-out: Growth inhibition IC50, E. coli strains
This listing pairs compounds with measured IC50.

1. O=C(O)c1cnc2ccc(Cl)cc2c1O : 44 to 65 µM

Now for another entry.
IN: Quick check: IC50 of `O=C(O)c1cnc2cc(Cl)ccc2c1O` ?
OUT: 44 to 65 µM

====

This listing pairs compounds with measured pIC50.
System: Mycobacterium abscessus ATCC19977
experiment_description: Antimicrobial activity test (growth, OD600)
Assay type: cell-based
measurement_setup: Mycobacteroides abscessus, read-out: Bacterial Viability (IC50)
Quick note: pIC50 values are minus log10 of concentrations in mol/L.

1. O=C(/C=C/c1csnn1)c1cc(Cl)ccc1Cl [HSI#05] : 4.75
2. O=C(/C=C/c1csnn1)c1ccccc1Cl [HSI#01] : 4.47

Now for another entry.
IN: Quick check: pIC50 of O=C(/C=C/c1csnn1)c1cccc2ccccc12 [HSI#10] ?
OUT: 4.66
